Below, each of the compounds is paired with its reported MIC value.
Tested on: P. aeruginosa ATCC27853
Test Description: MIC susceptibility testing, broth microdilution in CaMHB
Type: cell-based, Pseudomonas aeruginosa
Condition Notes: Table 4A, different batches of cation-adjusted Muller-Hinton broth
Structures can show the parent of a compound that is named as a salt. *1 amine or outer side, *2 acyl side, *3 side chain or, on linkers, in order; H or OH if unused. Where a SMILES comes first, the peptide text is derived from it. Bridges are numbered along the chain shown (N, C = ends). [ ]: non-standard residue; d: D form. The star is where a group is joined. ξ: configuration not given here. Achc(trans-4) = O=C([C@H]1CC[C@H](N[*:1])CC1)[*:2]; ξβ3hGly(cHex) = NC(CC(=O)*)C1CCCCC1; Thr(3ξ) = CC(O)[C@H](N)C(=O)O; Dab = NCC[C@H](N)C(=O)O; Glycolyl = O=C(CO)*
Lab book: enter the figure in micrograms/mL, no units written.

Consider the worked cases shown below.
| Compound | Unit Abbrev | MIC |
| --- | --- | --- |
| CC(C)C[C@@H]1NC(=O)[C@@H](Cc2ccccc2)NC(=O)[C@H](CCN)NC(=O)[C@@H](NC(=O)[C@H](CCN)NC(=O)[C@@H](NC(=O)CC(N)C2CCCCC2)C(C)O)CCNC(=O)[C@H](C(C)O)NC(=O)[C@H](CCN)NC(=O)[C@H](CCN)NC1=O (stereo partly drawn) [Example 14, Sulphate Salt] ({ξβ3hGly(cHex)}-[Thr(3ξ)][Dab][Dab][Dab][dF]L[Dab][Dab][Thr(3ξ)]; lactam 3-C) | micrograms/mL | 0.25 |
| CC(C)C[C@@H]1NC(=O)[C@@H](Cc2ccccc2)NC(=O)[C@H](CCN)NC(=O)[C@@H](NC(=O)[C@H](CCN)NC(=O)[C@@H](NC(=O)CO)C(C)O)CCNC(=O)[C@H](C(C)O)NC(=O)[C@H](CCN)NC(=O)[C@H](CCN)NC1=O (stereo partly drawn) [Example 16, Hydroxyacetyl polymyxin B nonapeptide] (Glycolyl-[Thr(3ξ)][Dab][Dab][Dab][dF]L[Dab][Dab][Thr(3ξ)]; lactam 3-C) | micrograms/mL | 0.25 |

We now examine a further compound.
Give the value of MIC reported for the following: CC(C)C[C@@H]1NC(=O)[C@@H](Cc2ccccc2)NC(=O)[C@H](CCN)NC(=O)[C@@H](NC(=O)[C@H](CCN)NC(=O)[C@@H](NC(=O)[C@H]2CC[C@H](N)CC2)C(C)O)CCNC(=O)[C@H](C(C)O)NC(=O)[C@H](CCN)NC(=O)[C@H](CCN)NC1=O (stereo partly drawn) [Example 24] ({Achc(trans-4)}-[Thr(3ξ)][Dab][Dab][Dab][dF]L[Dab][Dab][Thr(3ξ)]; lactam 3-C)
0.125

====

Reported MIC values are given for each entry in this list.
System: K. pneumoniae ATCC 4352
Test Description: MIC susceptibility testing, broth microdilution in CaMHB
Assay type: cell-based, Klebsiella pneumoniae
Condition Notes: K. pneumoniae ATCC 4352; Table 4
Structures can show the parent of a compound that is named as a salt. Where a SMILES comes first, the peptide text is derived from it. Bridges are numbered along the chain shown (N, C = ends). [ ]: non-standard residue; d: D form. The star is where a group is joined. ξ: configuration not given here. ξβ3hGly(cHex) = NC(CC(=O)*)C1CCCCC1; Thr(3ξ) = CC(O)[C@H](N)C(=O)O; Dab = NCC[C@H](N)C(=O)O; X3 = O=C(C1CCNC1)*; βAla = NCCC(=O)O
State just the number; it will be interpreted in micrograms/mL.

| Molecule | Unit Abbrev | MIC |
| --- | --- | --- |
| CC(C)C[C@@H]1NC(=O)[C@@H](Cc2ccccc2)NC(=O)[C@H](CCN)NC(=O)[C@@H](NC(=O)[C@H](CCN)NC(=O)[C@@H](NC(=O)CCN)C(C)O)CCNC(=O)[C@H](C(C)O)NC(=O)[C@H](CCN)NC(=O)[C@H](CCN)NC1=O (stereo partly shown) [Example 4, Sulphate Salt] (H-[βAla][Thr(3ξ)][Dab][Dab][Dab][dF]L[Dab][Dab][Thr(3ξ)]; lactam 4-C) | micrograms/mL | 0.125 |
| CC(C)C[C@@H]1NC(=O)[C@@H](Cc2ccccc2)NC(=O)[C@H](CCN)NC(=O)[C@@H](NC(=O)[C@H](CCN)NC(=O)[C@@H](NC(=O)CC(N)C2CCCCC2)C(C)O)CCNC(=O)[C@H](C(C)O)NC(=O)[C@H](CCN)NC(=O)[C@H](CCN)NC1=O (stereo partly drawn) [Example 14, Sulphate Salt] ({ξβ3hGly(cHex)}-[Thr(3ξ)][Dab][Dab][Dab][dF]L[Dab][Dab][Thr(3ξ)]; lactam 3-C) | micrograms/mL | 1 |
| CC(C)C[C@@H]1NC(=O)[C@@H](Cc2ccccc2)NC(=O)[C@H](CCN)NC(=O)[C@@H](NC(=O)[C@H](CCN)NC(=O)[C@@H](NC(=O)CN)C(C)O)CCNC(=O)[C@H](C(C)O)NC(=O)[C@H](CCN)NC(=O)[C@H](CCN)NC1=O (stereo partly shown) [Example 3, Sulphate Salt] (H-G[Thr(3ξ)][Dab][Dab][Dab][dF]L[Dab][Dab][Thr(3ξ)]; lactam 4-C) | micrograms/mL | 1 |

Now look at this one.
Provide one value: measured MIC of CC(C)C[C@@H]1NC(=O)[C@@H](Cc2ccccc2)NC(=O)[C@H](CCN)NC(=O)[C@@H](NC(=O)[C@H](CCN)NC(=O)[C@@H](NC(=O)C2CCNC2)C(C)O)CCNC(=O)[C@H](C(C)O)NC(=O)[C@H](CCN)NC(=O)[C@H](CCN)NC1=O (stereo partly shown) [Example 13, Sulphate Salt] (X3-[Thr(3ξ)][Dab][Dab][Dab][dF]L[Dab][Dab][Thr(3ξ)]; lactam 3-C)
0.5

====

Test system: P. aeruginosa ATCC27853
Test Description: MIC susceptibility testing, broth microdilution in CaMHB
Assay type: cell-based, Pseudomonas aeruginosa
Condition Notes: Table 4A, different batches of cation-adjusted Muller-Hinton broth
Where a SMILES comes first, the peptide text is derived from it. Bridges are numbered along the chain shown (N, C = ends). [ ]: non-standard residue; d: D form. The star is where a group is joined. ξ: configuration not given here. Butanoyl(3ξ-OH) = CC(O)CC(=O)*; Thr(3ξ) = CC(O)[C@H](N)C(=O)O; Dab = NCC[C@H](N)C(=O)O; X12 = O=C(CCCN1CCOCC1)*
Below is a list of entries, each paired with its recorded MIC value.
Number only, in micrograms/mL; omit the unit.

| Compound | Unit Abbrev | Recorded Result |
| --- | --- | --- |
| CC(C)C[C@@H]1NC(=O)[C@@H](Cc2ccccc2)NC(=O)[C@H](CCN)NC(=O)[C@@H](NC(=O)[C@H](CCN)NC(=O)[C@@H](NC(=O)CCCN2CCOCC2)C(C)O)CCNC(=O)[C@H](C(C)O)NC(=O)[C@H](CCN)NC(=O)[C@H](CCN)NC1=O (stereo partly drawn) [Example 20] (X12-[Thr(3ξ)][Dab][Dab][Dab][dF]L[Dab][Dab][Thr(3ξ)]; lactam 3-C) | micrograms/mL | 1 |

Now for the compound whose MIC we want.
Report the value of MIC obtained on P. aeruginosa ATCC27853 for CC(C)C[C@@H]1NC(=O)[C@@H](Cc2ccccc2)NC(=O)[C@H](CCN)NC(=O)[C@@H](NC(=O)[C@H](CCN)NC(=O)[C@@H](NC(=O)CC(C)O)C(C)O)CCNC(=O)[C@H](C(C)O)NC(=O)[C@H](CCN)NC(=O)[C@H](CCN)NC1=O (stereo partly drawn) [Example 22] ({Butanoyl(3ξ-OH)}-[Thr(3ξ)][Dab][Dab][Dab][dF]L[Dab][Dab][Thr(3ξ)]; lactam 3-C) .
0.5

====

Test system: A. baumannii ATCC19606
Test Description: MIC susceptibility testing, broth microdilution in CaMHB
Assay type: cell-based, Acinetobacter baumannii
Condition Notes: Table 4
Structures can show the parent of a compound that is named as a salt. Where a SMILES comes first, the peptide text is derived from it. Bridges are numbered along the chain shown (N, C = ends). [ ]: non-standard residue; d: D form. The star is where a group is joined. ξ: configuration not given here. Thr(3ξ) = CC(O)[C@H](N)C(=O)O; Dab = NCC[C@H](N)C(=O)O; X1 = CCCCCCC(O)C(=O)*; Aoc = NCCCCCCCC(=O)O
Observable: MIC (micrograms/mL)
Please give a number only; it is taken to be in micrograms/mL.

| Compound | Unit Abbrev | Recorded Result |
| --- | --- | --- |
| CC(C)C[C@@H]1NC(=O)[C@@H](Cc2ccccc2)NC(=O)[C@H](CCN)NC(=O)[C@@H](NC(=O)[C@H](CCN)NC(=O)[C@@H](NC(=O)CCCCCCCN)C(C)O)CCNC(=O)[C@H](C(C)O)NC(=O)[C@H](CCN)NC(=O)[C@H](CCN)NC1=O (some centres unmarked) [Example 9, Sulphate Salt] (H-[Aoc][Thr(3ξ)][Dab][Dab][Dab][dF]L[Dab][Dab][Thr(3ξ)]; lactam 4-C) | micrograms/mL | 16 |

// below: MIC requested for another compound
Assign MIC to the following record: CCCCCCC(O)C(=O)N[C@H](C(=O)N[C@@H](CCN)C(=O)N[C@H]1CCNC(=O)[C@H](C(C)O)NC(=O)[C@H](CCN)NC(=O)[C@H](CCN)NC(=O)[C@H](CC(C)C)NC(=O)[C@@H](Cc2ccccc2)NC(=O)[C@H](CCN)NC1=O)C(C)O (some centres unmarked) [Example 2, Sulphate Salt] (X1-[Thr(3ξ)][Dab][Dab][Dab][dF]L[Dab][Dab][Thr(3ξ)]; lactam 3-C)
2
